Biological target: recombinant human GluN1/GluN2A receptor (Homo sapiens, UniProt Q05586+Q12879)
Construct: expressed in transfected cells; host or cells: HEK293, tetracycline-inducible expression
Sequence (Q12879 23-1464, other chains not shown): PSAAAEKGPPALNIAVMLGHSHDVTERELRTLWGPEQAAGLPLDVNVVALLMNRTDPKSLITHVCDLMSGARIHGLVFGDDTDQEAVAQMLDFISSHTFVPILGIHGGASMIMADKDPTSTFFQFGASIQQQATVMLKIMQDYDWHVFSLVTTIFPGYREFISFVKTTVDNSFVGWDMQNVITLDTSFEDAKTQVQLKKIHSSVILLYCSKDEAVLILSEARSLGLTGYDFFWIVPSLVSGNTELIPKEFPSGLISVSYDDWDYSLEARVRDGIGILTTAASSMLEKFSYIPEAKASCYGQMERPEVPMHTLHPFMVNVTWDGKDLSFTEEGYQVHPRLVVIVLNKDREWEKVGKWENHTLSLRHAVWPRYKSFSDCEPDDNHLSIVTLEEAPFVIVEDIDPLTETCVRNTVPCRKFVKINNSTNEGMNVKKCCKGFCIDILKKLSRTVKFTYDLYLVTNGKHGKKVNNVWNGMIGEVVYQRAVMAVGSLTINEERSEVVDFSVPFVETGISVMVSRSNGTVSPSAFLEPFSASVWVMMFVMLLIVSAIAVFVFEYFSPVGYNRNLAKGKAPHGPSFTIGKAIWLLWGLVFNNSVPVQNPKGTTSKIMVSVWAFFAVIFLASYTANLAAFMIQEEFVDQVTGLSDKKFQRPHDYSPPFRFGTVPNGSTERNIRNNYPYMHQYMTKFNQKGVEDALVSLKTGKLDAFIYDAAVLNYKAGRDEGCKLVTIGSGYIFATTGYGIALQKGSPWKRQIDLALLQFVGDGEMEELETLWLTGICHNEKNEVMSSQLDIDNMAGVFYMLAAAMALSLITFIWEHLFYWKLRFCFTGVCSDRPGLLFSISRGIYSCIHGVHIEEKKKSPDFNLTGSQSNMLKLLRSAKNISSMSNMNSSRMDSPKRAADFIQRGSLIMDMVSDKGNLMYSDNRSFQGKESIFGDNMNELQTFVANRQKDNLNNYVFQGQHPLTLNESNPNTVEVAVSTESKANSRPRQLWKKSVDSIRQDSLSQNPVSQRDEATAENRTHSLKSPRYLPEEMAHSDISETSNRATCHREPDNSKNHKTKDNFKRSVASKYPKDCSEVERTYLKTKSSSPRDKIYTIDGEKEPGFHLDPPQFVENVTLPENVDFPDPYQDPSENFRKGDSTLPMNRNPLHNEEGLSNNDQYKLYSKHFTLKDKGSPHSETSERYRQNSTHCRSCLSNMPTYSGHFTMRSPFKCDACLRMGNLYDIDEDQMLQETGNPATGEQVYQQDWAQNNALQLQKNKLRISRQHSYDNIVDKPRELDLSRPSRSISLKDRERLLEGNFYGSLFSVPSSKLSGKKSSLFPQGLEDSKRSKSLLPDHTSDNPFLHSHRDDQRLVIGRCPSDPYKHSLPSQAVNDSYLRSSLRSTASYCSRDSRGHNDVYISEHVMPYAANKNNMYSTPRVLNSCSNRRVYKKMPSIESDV
Assay: Whole-cell patch clamp of mammalian cells (Syncropatch 384i), NMDA modulation
Format: cell-based
Details: Table E-2; HEK293 cells, human GluN1/GluN2A; glutamate 1 μM / glycine 100 μM; -80 mV; peak amplitude increase; read-out: EC50
EXPERIMENTAL_ENDPOINT: EC50

C[C@H](CC[C@@](C)(O)C(F)(F)F)[C@H]1CC[C@H]2[C@@H]3CC[C@H]4C[C@@](C)(O)CC[C@]4(C)C3=CC[C@]12C [Compound E-14] : 100 to 500 nM

Here are 4 molecules. What values of EC50 were reported for them?
1. CC[C@]1(O)CC[C@]2(C)C3=CC[C@]4(C)[C@@H]([C@H](C)CCC5(O)CCCC5)CC[C@H]4[C@@H]3CC[C@H]2C1 [Compound E-6]
2. CC[C@]1(O)CC[C@]2(C)C3=CC[C@]4(C)[C@@H]([C@H](C)CCC5(O)CC5)CC[C@H]4[C@@H]3CC[C@H]2C1 [Compound E-7]
3. C[C@H](CC[C@@H](O)C(C)(C)C#N)[C@H]1CC[C@H]2[C@@H]3CC[C@H]4C[C@@](C)(O)CC[C@]4(C)C3=CC[C@]12C [Compound C-34]
4. C[C@H](CC[C@H](O)C1(C#N)CCC1)[C@H]1CC[C@H]2[C@@H]3CC[C@H]4C[C@@](C)(O)CC[C@]4(C)C3=CC[C@]12C [Compound C-30]

["1 to 100 nM", "100 to 500 nM", "1 to 100 nM", "100 to 500 nM"]

Here are 4 molecules. What values of EC50 were reported for them?
1. CC(C)[C@@H](O)CC[C@@H](C)[C@H]1CC[C@H]2[C@@H]3CC[C@H]4C[C@@](C)(O)CC[C@]4(C)C3=CC[C@]12C [Compound E-12]
2. C[C@H](CC[C@@H](O)C1(C#N)CCC1)[C@H]1CC[C@H]2[C@@H]3CC[C@H]4C[C@@](C)(O)CC[C@]4(C)C3=CC[C@]12C [Compound C-31]
3. CC[C@]1(O)CC[C@]2(C)C3=CC[C@]4(C)[C@@H]([C@H](C)CC[C@@H](O)C5(C#N)CC5)CC[C@H]4[C@@H]3CC[C@H]2C1 [Compound C-27]
4. CC[C@]1(O)CC[C@]2(C)C3=CC[C@]4(C)[C@@H]([C@H](C)CC[C@@]5(O)CCOC5)CC[C@H]4[C@@H]3CC[C@H]2C1 [Compound E-8]

1: 1 to 100 nM; 2: 1 to 100 nM; 3: 1 to 100 nM; 4: 1 to 100 nM

Entry under review: C[C@H](CC[C@](C)(O)C(F)(F)F)[C@H]1CC[C@H]2[C@@H]3CC[C@H]4C[C@@](C)(O)CC[C@]4(C)C3=CC[C@]12C [Compound E-13] . Reported EC50? 1 to 100 nM
